Assay: Surface tension, pendant drop tensiometer (cmc, γc)
Assay type: physicochemical
Conditions: from surface tension
Each entry below carries its recorded cmc.

{"molecule": "CCCCCCCCCCCCNC(=O)C(CCCNC(=N)N)NC(=O)C(N)Cc1ccccc1 (stereo not drawn) [PANHC12]", "cmc, mM": 1.5}
{"molecule": "CCCCCCCCCCCCCCNC(=O)C(CCCNC(=N)N)NC(=O)C(N)Cc1ccccc1 (stereo not drawn) [PANHC14]", "cmc, mM": 0.35}
{"molecule": "CCCCCCCCCCCCNC(=O)C(CCCNC(=N)N)NC(=O)C(N)Cc1c[nH]c2ccccc12 (stereo not drawn) [TANHC12]", "cmc, mM": 2.5}

These entries and their values trace back to paper PMC12452389.
